metric name: melting point

Answered examples (4):
| compound | melting point |
| --- | --- |
| CCCn1c(CCOC)nc2c(N)nc3cc(OCCCN)ccc3c21 [Example 394] | 165 to 166.5 °C |
| CCCc1nc2c(N)nc3cc(OCCCCCCNS(C)(=O)=O)ccc3c2n1CCCCNS(C)(=O)=O [Example 47] | 138 to 140 °C |
| CCCc1nc2c(N)nc3cc(OCCN4CCCC4=O)ccc3c2n1CC(C)C [Example 18] | 206 to 208 °C |
| CCOCc1nc2c(N)nc3cc(OCCCN4CCCC4=O)ccc3c2n1CCCCNC(=O)NC(C)C [Example 399] | 98 to 101 °C |

q: Need melting point of CCc1nc2c(N)nc3cc(OCC(=O)N4CCOCC4)ccc3c2n1CC1CCOCC1 [Example 553] , thanks.
a: 245 to 247 °C

q: Need melting point of CCCc1nc2c(N)nc3cc(OCCCN)ccc3c2n1CC(C)C [Example 8] , thanks.
a: 173 to 174 °C

q: Need melting point of CCCCc1nc2c(N)nc3ccc(OCCC4CCN(C(=O)OC(C)(C)C)CC4)cc3c2n1C [Example 37] , thanks.
a: 171.1 to 173.2 °C

q: Need melting point of CCCc1nc2c(N)nc3cc(OCCCN4CCCS4(=O)=O)ccc3c2n1CC(C)C [Example 13] , thanks.
a: 142 to 144 °C

====

Each entry below carries its reported melting point.

Answered examples (5):
| input smiles | melting point |
| --- | --- |
| CCCc1nc2c(N)nc3cc(OCCCCCCNC(C)=O)ccc3c2n1CCCCNS(C)(=O)=O | 168 to 172 °C |
| Cc1nc2c(N)nc3cc(OCCC4CCN(C(=O)C(C)C)CC4)ccc3c2n1CC(C)C | 205.1 to 207.1 °C |
| CCOCc1nc2c(N)nc3cc(OCCCCCCNC(C)=O)ccc3c2n1CC(C)(C)NC(C)=O | 190 to 192 °C |
| CCCn1c(COCC)nc2c(N)nc3cc(OCC(=O)N4CCOCC4)ccc3c21 | 213 °C |
| CCCn1c(COC)nc2c(N)nc3ccc(OCC(=O)N4CCSCC4)cc3c21 | 214 to 216 °C |

q: Need melting point of CCc1nc2c(N)nc3cc(OCCNC(=O)OC(C)(C)C)ccc3c2n1CC1CCOCC1 , thanks.
a: 200 to 201 °C

q: Need melting point of Cc1nc2c(N)nc3cc(OCCC4CCN(C(=O)C5CCCC5)CC4)ccc3c2n1CC(C)C , thanks.
a: 235.7 to 238.1 °C

q: Need melting point of CCCn1c(CCOC)nc2c(N)nc3cc(OC(=O)NC(C)C)ccc3c21 , thanks.
a: 144 to 146 °C

====

Structures can show the parent of a compound that is named as a salt.
metric name: melting point

Answered examples (10):
| compound | melting point |
| --- | --- |
| CCCc1nc2c(N)nc3cc(OCCCNC(=O)C(C)C)ccc3c2n1CC(C)C | 179 to 181 °C |
| CCCn1c(COC)nc2c(N)nc3ccc(OCC(=O)N4CCOCC4)cc3c21 | 201 to 204 °C |
| Cc1nc2c(N)nc3ccc(OCC(=O)O)cc3c2n1C | 298 °C (dec.) |
| CCCCc1nc2c(N)nc3ccc(OCCCCC(=O)N4CCOCC4)cc3c2n1C (as salt: trifluoroacetate) | 155.5 to 156.2 °C |
| CCCCc1nc2c(N)nc3ccc(OCC(=O)N(C)Cc4ccccc4)cc3c2n1C | 167.4 to 168.8 °C |
| CCCc1nc2c(N)nc3cc(OCCCNC(=O)NS(=O)(=O)c4ccc(F)cc4)ccc3c2n1CC(C)C | 194 to 198 °C |
| Cc1nc2c(N)nc3cc(OCCC4CCN(C(=O)NC5CCCCC5)CC4)ccc3c2n1CC(C)C | 213.7 to 215.7 °C |
| CCc1nc2c(N)nc3cc(OCCN)ccc3c2n1CC1CCOCC1 | 238 °C (dec.) |
| COCCc1nc2c(N)nc3cc(OCC4OCCO4)ccc3c2n1CC(C)(C)O | 131 to 136 °C |
| CCOCc1nc2c(N)nc3cc(OCCN)ccc3c2n1CC(C)(C)O | 163 to 165 °C |

q: Need melting point of Cc1nc2c(N)nc3cc(OCCNC(=O)C(C)C)ccc3c2n1CC(C)C , thanks.
a: 205 to 206 °C

q: Need melting point of CCCn1c(COCC)nc2c(N)nc3ccc(OCCCCCCNS(C)(=O)=O)cc3c21 , thanks.
a: 164 to 167 °C

q: Need melting point of CCCCc1nc2c(N)nc3ccc(OCC(=O)N(CC)CC)cc3c2n1C , thanks.
a: 185.9 to 188.1 °C
